Biological target: Human complement C1s enzyme (Homo sapiens)
Experiment: Human C1s enzyme assay
Format: biochemical
Details: human complement C1s enzyme 1.16 nM, substrate Z-L-Lys-SBzl 100 μM, 5 min preincubation; read-out: IC50 (Stars), C1s Inhibiting Activity
Experimental: Other standard complement assays are also available. Human complement C1s enzyme (purified from human serum, Complement Technology, Inc.) at 1.16 nM final concentration was incubated with test compound at various concentrations for 5 min at room temperature in 50 mM Tris, 1 M NaCl, pH 7.5. […] Absorbance at 405 nm (A405) was recorded at 30 second intervals for 30 min using a microplate spectrophotometer. […] ND indicates a compound for which the IC50 value is not determined.
pIC50: −log10 of the molar value.
Each entry below lists one item and its recorded pIC50 value.
Readout Type: pIC50

INSERT INTO measurements (smiles_representation, result) VALUES
  ('C[C@@H](NC(=O)[C@@H]1C[C@@H](OC(F)F)CN1C(=O)CN1Cc2cc(-c3ccc(F)cc3)ccc2C1=O)c1cc2cnccc2[nH]1', '> 7.00'),
  ('C[C@@]12C[C@@H]1N(C(=O)CNC(=O)CCCOc1ccccc1)[C@H](C(=O)N[C@@H]1CCN(C(=O)CCN)C1)C2', '< 6.00'),
  ('O=C(NCC(=O)N1CC2(C[C@H]1C(=O)NCc1cc3cnccc3[nH]1)OCCO2)c1ccc2c(c1)sc1ccccc12', '> 7.00'),
  ('C[C@H](NC(=O)[C@@H]1C[C@]2(C)C[C@@H]2N1C(=O)CNC(=O)CCCOc1ccccc1)c1cc2cnccc2[nH]1', '< 6.00'),
  ('O=C(NCC(=O)N1C[C@H](OC(F)F)C[C@H]1C(=O)NCc1ccc2ncoc2c1)c1ccc2c(c1)Oc1ccccc1S2', '< 6.00'),
  ('Cc1ccc(Oc2cccc(C(=O)NCC(=O)N3C[C@H](OC(F)F)C[C@H]3C(=O)N[C@H](C)c3cc4cnccc4[nH]3)c2)c(F)c1', '> 7.00'),
  ('C[C@@H](NC(=O)[C@@H]1C[C@@H](OC(F)F)CN1C(=O)CNC(=O)c1ccc2oc3ccccc3c2c1)c1cc2cnccc2[nH]1', '> 7.00'),
  ('O=C(NCC(=O)N1C[C@H](OC(F)F)C[C@H]1C(=O)NCc1ccc2c(c1)CCN2)c1ccc2c(c1)Oc1ccccc1S2', '< 6.00'),
  ('Nc1nccc2ccc(CNC(=O)[C@@H]3CC4(CN3C(=O)CNC(=O)c3ccc5c(c3)Oc3ccccc3S5)OCCO4)cc12', '< 6.00'),
  ('O=C(NCC(=O)N1CC2(C[C@H]1C(=O)NCc1cc3cnccc3[nH]1)OCCO2)c1ccc2sc3ccccc3c2c1', '> 7.00'),
  ('O=C(NCC(=O)N1CC2(C[C@H]1C(=O)NCc1cc3cnc(Cl)cc3[nH]1)OCCO2)c1ccc2c(c1)Oc1ccccc1S2', '< 6.00'),
  ('COC[C@H]1C[C@@H](C(=O)NCc2cc3cnccc3[nH]2)N(C(=O)CNC(=O)c2cccc(Oc3ccc(C)cc3F)c2)C1', '> 7.00'),
  ('O=C(NCC(=O)N1C[C@H](OC(F)F)C[C@H]1C(=O)NCc1cc2cnccc2[nH]1)c1ccc(F)c(Oc2ccccc2)c1', '> 7.00');

====

Molecular target: Human complement C1s enzyme (Homo sapiens, UniProt P09871)
Sequence (P09871 438-688 limits assumed): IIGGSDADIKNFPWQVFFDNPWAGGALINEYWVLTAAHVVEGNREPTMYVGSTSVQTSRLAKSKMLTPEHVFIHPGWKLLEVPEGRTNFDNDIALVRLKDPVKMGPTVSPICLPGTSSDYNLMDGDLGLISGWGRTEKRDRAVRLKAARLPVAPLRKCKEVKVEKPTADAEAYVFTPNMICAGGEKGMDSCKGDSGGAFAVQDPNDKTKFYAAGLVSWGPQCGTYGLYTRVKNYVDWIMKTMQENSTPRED
Sequence (P09871 16-437 partner limits assumed): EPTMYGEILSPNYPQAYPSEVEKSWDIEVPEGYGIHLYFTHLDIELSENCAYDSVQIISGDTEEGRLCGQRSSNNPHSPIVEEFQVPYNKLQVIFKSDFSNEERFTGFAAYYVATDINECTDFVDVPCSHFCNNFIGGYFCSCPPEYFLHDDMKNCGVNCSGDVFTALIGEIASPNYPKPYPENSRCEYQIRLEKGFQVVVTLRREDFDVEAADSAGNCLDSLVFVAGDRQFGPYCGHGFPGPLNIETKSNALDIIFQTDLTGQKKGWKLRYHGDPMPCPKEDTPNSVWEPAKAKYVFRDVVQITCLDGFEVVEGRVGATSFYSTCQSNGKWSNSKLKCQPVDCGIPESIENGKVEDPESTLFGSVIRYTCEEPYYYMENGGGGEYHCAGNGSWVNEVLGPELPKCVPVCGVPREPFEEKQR
Experiment: Human C1s enzyme assay
Format: biochemical
Details: human complement C1s enzyme 1.16 nM, substrate Z-L-Lys-SBzl 100 μM, 5 min preincubation; read-out: IC50 (Stars), C1s Inhibiting Activity
pIC50: −log10 of the molar value.
Readout Type: pIC50

INSERT INTO assay_data (compound, system, result) VALUES
  ('C[C@@H](NC(=O)[C@@H]1C[C@@H](OC(F)F)CN1C(=O)CNC(=O)c1ccc2c(c1)Oc1ccccc1S2)c1cc2cnccc2s1', 'Human complement C1s enzyme (Homo sapiens, UniProt P09871)', '> 7.00'),
  ('CS(=O)(=O)[C@@H]1C[C@@H](C(=O)NCc2cc3cnccc3[nH]2)N(C(=O)CNC(=O)c2ccc3c(c2)Oc2ccccc2S3)C1', 'Human complement C1s enzyme (Homo sapiens, UniProt P09871)', '> 7.00'),
  ('O=C(NCC(=O)N1C[C@H](OC(F)F)C[C@H]1C(=O)NCc1cc2cnccc2s1)c1ccc2c(c1)Oc1ccccc1S2', 'Human complement C1s enzyme (Homo sapiens, UniProt P09871)', '> 7.00'),
  ('O=C(NCC(=O)N1C[C@H](OC(F)F)C[C@H]1C(=O)N[C@H](CO)c1cc2cnccc2[nH]1)c1ccc2c(c1)-c1ccccc1C2(F)F', 'Human complement C1s enzyme (Homo sapiens, UniProt P09871)', '6.00 to 7.00'),
  ('Cc1cc(F)ccc1Oc1cccc(C(=O)NCC(=O)N2C[C@H](OC(F)F)C[C@H]2C(=O)NCc2cc3cnccc3[nH]2)c1', 'Human complement C1s enzyme (Homo sapiens, UniProt P09871)', '> 7.00'),
  ('CS(=O)(=O)[C@@H]1C[C@@H](C(=O)NCc2cc3cnccc3[nH]2)N(C(=O)CNC(=O)c2ccc3oc4ccccc4c3c2)C1', 'Human complement C1s enzyme (Homo sapiens, UniProt P09871)', '> 7.00'),
  ('O=C(NCC(=O)N1C[C@H](OC(F)F)C[C@H]1C(=O)NCc1ccc2cn[nH]c2c1)c1ccc2c(c1)Oc1ccccc1S2', 'Human complement C1s enzyme (Homo sapiens, UniProt P09871)', '< 6.00'),
  ('O=C(NCC(=O)N1C[C@H](OC(F)F)C[C@H]1C(=O)NCc1ccc2c(c1)CNC2)c1ccc2c(c1)Oc1ccccc1S2', 'Human complement C1s enzyme (Homo sapiens, UniProt P09871)', '> 7.00'),
  ('CC(NC(=O)[C@@H]1CC2(CN1C(=O)CNC(=O)c1ccc3c(c1)Oc1ccccc1S3)OCCO2)c1cc2cnccc2[nH]1 (stereo in doubt)', 'Human complement C1s enzyme (Homo sapiens, UniProt P09871)', '> 7.00'),
  ('Cc1ccc(-c2cnc(C(=O)NCC(=O)N3CC4(C[C@H]3C(=O)NCc3cc5cnccc5[nH]3)OCCO4)c(F)c2)cc1', 'Human complement C1s enzyme (Homo sapiens, UniProt P09871)', '6.00 to 7.00'),
  ('O=C(NCC(=O)N1C[C@H](OC(F)F)C[C@H]1C(=O)NCc1ccc2cnccc2c1)c1ccc2c(c1)Oc1ccccc1S2', 'Human complement C1s enzyme (Homo sapiens, UniProt P09871)', '< 6.00'),
  ('C[C@@H](NC(=O)[C@@H]1CC2(CN1C(=O)CNC(=O)c1ccc3oc4ccccc4c3c1)OCCO2)c1cc2cnccc2[nH]1', 'Human complement C1s enzyme (Homo sapiens, UniProt P09871)', '> 7.00'),
  ('O=C(CCCOc1ccccc1)NCC(=O)N1CC2(C[C@H]1C(=O)NCc1cc3cnccc3[nH]1)OCCO2', 'Human complement C1s enzyme (Homo sapiens, UniProt P09871)', '> 7.00');

====

Target: Human complement C1s enzyme (Homo sapiens)
Sequence (P09871 438-688 limits assumed): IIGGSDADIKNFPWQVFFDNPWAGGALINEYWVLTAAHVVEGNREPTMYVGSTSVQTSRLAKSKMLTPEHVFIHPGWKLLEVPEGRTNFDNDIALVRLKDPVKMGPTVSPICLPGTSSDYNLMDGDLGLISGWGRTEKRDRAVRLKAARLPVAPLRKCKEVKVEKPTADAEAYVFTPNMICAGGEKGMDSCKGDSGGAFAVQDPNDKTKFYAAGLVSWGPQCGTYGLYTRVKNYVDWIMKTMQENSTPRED
Sequence (P09871 16-437 partner limits assumed): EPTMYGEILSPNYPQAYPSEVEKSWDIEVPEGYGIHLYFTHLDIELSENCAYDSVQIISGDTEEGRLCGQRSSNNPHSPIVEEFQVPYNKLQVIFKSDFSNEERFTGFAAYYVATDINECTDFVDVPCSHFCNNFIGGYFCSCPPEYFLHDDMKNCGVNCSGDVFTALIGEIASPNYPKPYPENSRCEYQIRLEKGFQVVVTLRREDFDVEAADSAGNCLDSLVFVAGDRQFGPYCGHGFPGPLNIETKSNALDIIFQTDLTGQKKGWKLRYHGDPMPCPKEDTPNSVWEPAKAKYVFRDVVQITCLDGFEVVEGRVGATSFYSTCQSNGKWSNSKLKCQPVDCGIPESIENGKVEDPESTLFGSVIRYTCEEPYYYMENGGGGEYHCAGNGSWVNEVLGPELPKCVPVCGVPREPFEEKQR
Assay: Human C1s enzyme assay
Type: biochemical
Details: human complement C1s enzyme 1.16 nM, substrate Z-L-Lys-SBzl 100 μM, 5 min preincubation; read-out: IC50 (Stars), C1s Inhibiting Activity
pIC50: −log10 of the molar value.
Readout Type: pIC50

INSERT INTO measurements (compound, readout_type, result) VALUES
  ('O=C(NCC(=O)N1CC2(C[C@H]1C(=O)NCc1cc3cnccc3[nH]1)OCCO2)c1cccc(Oc2ccc(F)cc2)c1 [Compound 157]', 'pIC50', '> 7.00'),
  ('COC[C@@]1(F)C[C@@H](C(=O)N[C@H](C)c2cc3cnccc3[nH]2)N(C(=O)CNC(=O)c2ccc3c(c2)-c2ccccc2C3(F)F)C1 [Compound 73]', 'pIC50', '> 7.00'),
  ('C[C@@H](NC(=O)[C@@H]1C[C@@H](OC(F)F)CN1C(=O)CNC(=O)c1ccc(Oc2ccccc2)cc1)c1cc2cnccc2s1 [Compound 209]', 'pIC50', '6.00 to 7.00');

Reference for the values: patent US20260062443A1
